Test: Metabolic stability test: liver microsomal stability assay
Type: in vitro ADME, mouse
Settings: mouse liver microsomes 0.5 mg protein/mL, compound 1 µM, absence of NADPH
Starred links: 1 amine or outer side, 2 acyl side, 3 side chain; linkers in the order of their positions; H or OH if unused. Positions of bridges follow the written chain, without caps; N, C: chain ends. Non-standard residues stand in square brackets, D forms with d. Residues, ends and D or L forms follow the SMILES beside them. *: point of attachment. NMedβ3hAla = C[C@H](CC(=O)[*:2])N(C)[*:1]; NMeF = CN[C@@H](Cc1ccccc1)C(=O)O; NMeGABA = CN(CCCC(=O)[*:2])[*:1]; NMeI = CC[C@H](C)[C@H](NC)C(=O)O; hPhe = N[C@@H](CCc1ccccc1)C(=O)O; NMeβAla = CN(CCC(=O)[*:2])[*:1]; NMeD = CN[C@@H](CC(=O)O)C(=O)O; NMeL = CN[C@@H](CC(C)C)C(=O)O; NMeV = CN[C@H](C(=O)O)C(C)C; d(β3hA) = C[C@@H](N)CC(=O)O; NMeAbu = CC[C@H](NC)C(=O)O; NMeA = CN[C@@H](C)C(=O)O; Piperidide = C1CCN(*)CC1; Abu = CC[C@H](N)C(=O)O; NBuGly = CCCCNCC(=O)O; Sar = CNCC(=O)O; tBu = CC(C)(C)*
assay.endpoint: Mouse Hepatic Microsome CLh,int NADPH(-) (µL/min/mg Protein)

| compound | test.value |
| --- | --- |
| CC[C@@H]1NC(=O)[C@H]([C@@H](C)CC)NC(=O)[C@H](Cc2ccccc2)N(C)C(=O)[C@H](CC(C)C)N(C)C(=O)[C@H](CC(C)C)NC(=O)CCN(C)C(=O)C[C@@H](C(=O)N2CCCCC2)NC(=O)[C@H](C(C)C)NC(=O)[C@H](CC(C)C)N(C)C(=O)[C@H](C)N(C)C(=O)[C@H](C(C)C)NC(=O)[C@H](CC(C)C)N(C)C(=O)[C@H](COC(C)(C)C)NC(=O)[C@H](Cc2ccccc2)N(C)C1=O [pd015] ([NMeβAla]L[NMeL][NMeF]I[Abu][NMeF]S(tBu)[NMeL]V[NMeA][NMeL]VD-Piperidide; lactam N-14) | 26.2 |
| CC[C@@H]1NC(=O)[C@H](CC(C)C)N(C)C(=O)[C@H](C)NC(=O)[C@@H]2CCCN2C(=O)[C@H](CC)N(C)C(=O)[C@H](CC(C)C)N(C)C(=O)CN(C)C(=O)[C@H](Cc2ccccc2)N(C)C(=O)[C@H]([C@@H](C)CC)NC(=O)CCN(C)C(=O)[C@H](C(C)C)N(C)C(=O)[C@H](COC(C)(C)C)NC(=O)[C@H](CC(C)C)N(C)C(=O)C[C@@H](C(=O)N2CCCCC2)N(C)C1=O [pd083] ([NMeL]S(tBu)[NMeV][NMeβAla]I[NMeF][Sar][NMeL][NMeAbu]PA[NMeL][Abu][NMeD]-Piperidide; lactam N-14) | 7.3 |
| CC[C@H](C)[C@@H]1NC(=O)[C@H](CC(C)C)N(C)C(=O)[C@H](C)N(C)C(=O)[C@H](C)NC(=O)C[C@@H](C)N(C)C(=O)[C@H](CC(C)C)N(C)C(=O)[C@H](C)N(C)C(=O)CN(C)C(=O)[C@H]([C@@H](C)O)NC(=O)[C@H](Cc2ccccc2)N(C)C(=O)[C@H](CC(C)C)N(C)C(=O)[C@H](C(C)C)NC(=O)[C@H]([C@@H](C)CC)N(C)C1=O [pd148] (cyclo(A[NMeA][NMeL]I[NMeI]V[NMeL][NMeF]T[Sar][NMeA][NMeL][NMedβ3hAla])) | 16.8 |
| CC(C)C[C@@H]1NC(=O)[C@H](Cc2ccccc2)N(C)C(=O)[C@H](C)N(C)C(=O)[C@H](CC(C)C)N(C)C(=O)CN(C)C(=O)[C@H](C(C)C)N(C)C(=O)[C@H](CC(C)C)N(C)C(=O)[C@H](C(C)C)N(C)C(=O)[C@H](C(C)C)NC(=O)[C@H](CC(C)C)N(C)C(=O)[C@@H](C(C)C)NC(=O)C[C@@H](C(=O)N2CCCCC2)N(C)C(=O)[C@H](C)N(C)C1=O [pd157] ([dV][NMeL]V[NMeV][NMeL][NMeV][Sar][NMeL][NMeA][NMeF]L[NMeA][NMeD]-Piperidide; lactam N-13) | 24.9 |
| CC[C@H](C)[C@@H]1NC(=O)[C@H](C)N(C)C(=O)[C@H]([C@@H](C)O)NC(=O)[C@H](Cc2ccccc2)N(C)C(=O)[C@H](COC(C)(C)C)NC(=O)[C@H](CC(C)C)N(C)C(=O)[C@H](C(C)C)NC(=O)CN(C)C(=O)[C@H](Cc2ccccc2)N(C)C(=O)[C@H]([C@@H](C)CC)NC(=O)[C@H](CC(C)C)N(C)C(=O)CCN(C)C(=O)C[C@@H](C(=O)N2CCCCC2)NC(=O)[C@H](CC(C)C)N(C)C1=O [pd034] ([NMeβAla][NMeL]I[NMeF][Sar]V[NMeL]S(tBu)[NMeF]T[NMeA]I[NMeL]D-Piperidide; lactam N-14) | 36.0 |
| CCCCN1CC(=O)N[C@@H]([C@@H](C)CC)C(=O)N(C)[C@@H](CC(C)C)C(=O)N[C@@H](C(C)C)C(=O)N[C@H](C(=O)N2CCCCC2)CC(=O)N(C)[C@@H](C)C(=O)N(C)[C@@H](CC(C)C)C(=O)N[C@@H]([C@@H](C)O)C(=O)N(C)[C@@H](Cc2ccccc2)C(=O)N[C@@H](CC)C(=O)N(C)[C@@H](Cc2ccccc2)C(=O)N[C@@H](C)C(=O)N(C)CCC(=O)N[C@@H](CC(C)C)C1=O [pd026] ([NMeA][NMeL]T[NMeF][Abu][NMeF]A[NMeβAla]L[NBuGly]I[NMeL]VD-Piperidide; lactam N-14) | 29.9 |
| CC[C@@H]1NC(=O)[C@H](CC(C)C)N(C)C(=O)[C@H](CC(C)C)NC(=O)CN(C)C(=O)[C@H](C(C)C)NC(=O)[C@H](CC(C)C)N(C)C(=O)[C@H](C(C)C)NC(=O)[C@H](Cc2ccccc2)N(C)C(=O)[C@H](C)N(C)C(=O)[C@@H](C)NC(=O)C[C@@H](C)NC(=O)[C@H](C(C)C)N(C)C(=O)[C@H](CC)N(C)C(=O)[C@H](CCc2ccccc2)NC1=O [pd006] (cyclo([Abu][hPhe][NMeAbu][NMeV][d(β3hA)][dA][NMeA][NMeF]V[NMeL]V[Sar]L[NMeL])) | 30.0 |
| CC[C@H](C)[C@H]1C(=O)N2CCC[C@H]2C(=O)N(C)[C@@H](C(C)C)C(=O)N(C)[C@@H](Cc2ccccc2)C(=O)N(C)[C@@H](C)C(=O)N(C)[C@@H](CC(C)C)C(=O)N[C@@H]([C@@H](C)O)C(=O)N(C)[C@@H](C)C(=O)N[C@@H](CCc2ccccc2)C(=O)N(C)[C@@H](CC(C)C)C(=O)N[C@H](C(=O)N2CCCCC2)CC(=O)N(C)CCCC(=O)N(C)[C@@H](CC(C)C)C(=O)N1C [pd124] ([NMeGABA][NMeL][NMeI]P[NMeV][NMeF][NMeA][NMeL]T[NMeA][hPhe][NMeL]D-Piperidide; lactam N-13) | 16.6 |

All figures here come from patent EP4768499A1.
